Listing of recorded Recovery ratio with respect to Hb concentration after 0 days by entry.
- System: hemoglobin-haptoglobin complex
- Experiment Summary: Stability of hemoglobin (as hemoglobin-haptoglobin complex) in samples preserved at 37° C. in preservation solution containing 1 unit/L haptoglobin, Hb measured by latex agglutination method (Examples 1 to 7)
- Design: species or system human
- Conditions Used: No feces; sugar 100 mmol/L, no phenylboronic acid; 37° C., 0 days
- Description: Preservation solutions were prepared with the addition of 40 mmol/L HEPES (pH 6.8), 0.1% BSA, 0.1% NaN3, 1 unit/L haptoglobin, and 0 to 100 mmol/L phenylboronic acid. Samples obtained by adding hemoglobin-added fecal specimens to the preservation solutions so that the fecal concentration would be 0.5% were preserved at 37° C. for 0, 7, 14, and 21 days. […] The hemoglobin (Hb) concentrations (μg/L) in the preserved samples were measured by the latex agglutination method. […]
Report as a plain number; the unit % is understood.

Some solved entries appear below for comparison.
> print(dat)
                                     smiles  endpoint.value
1    OC[C@@H](O)[C@@H](O)[C@H](O)[C@H](O)CO             100
2  OC[C@H]1O[C@@](CO)(O[C@H]2O[C@H](CO)[C@@H](O)[C@H](O)[C@H]2O)[C@@H](O)[C@@H]1O             100
3  OC[C@H]1O[C@H](O[C@H]2O[C@H](CO)[C@@H](O)[C@H](O)[C@H]2O)[C@H](O)[C@@H](O)[C@@H]1O             100

Problem: In one line, give reported Recovery ratio with respect to Hb concentration after 0 days of the entry O=C(CO)[C@@H](O)[C@H](O)[C@H](O)CO .
Solution: 100

Problem: In one line, give reported Recovery ratio with respect to Hb concentration after 0 days of the entry OC[C@@H](O)[C@@H](O)[C@H](O)[C@@H](O)CO .
Solution: 100
